Measured IC90, listed per entry.
- Test system: Fusarium virguliforme (Fv)
- Test Name: Growth inhibition assay of fungal pathogens, Fv
- Format: cell-based
- Cond: 48 h, growth inhibition vs 2% DMSO control at 48 hours, read-out: Concentration at 90% Inhibition Fv
Measure Name: IC90 (µg/mL)

- COc1ccc(F)cc1[C@H](Cn1c(=O)n(C(C)(C)C(=O)N2CCCC2)c(=O)c2c(C)c(-n3nccn3)sc21)OC[C@@H](C)O: 2
- COc1ccc(F)cc1[C@H](Cn1c(=O)n(C(C)(C)C(=O)NCC(C)C)c(=O)c2c(C)c(-n3nccn3)sc21)OC1CCOCC1: 0.4
- COCCO[C@@H](Cn1c(=O)n([C@H](C)C(=O)NC(C)C)c(=O)c2c(C)c(-n3nccn3)sc21)c1cc(F)ccc1OC: 0.4
- COCCO[C@@H](Cn1c(=O)n(CC(=O)N2CCCC2)c(=O)c2c(C)c(-n3nccn3)sc21)c1cc(F)ccc1OC: 10
- COc1ccc(F)cc1[C@H](Cn1c(=O)n(CC(=O)N2CCCC2)c(=O)c2c(C)c(-n3nccn3)sc21)OCCO: 0.4
- COc1ccc(F)cc1[C@H](Cn1c(=O)n(C(C)(C)C(=O)NC2CCC2)c(=O)c2c(C)c(-n3nccn3)sc21)OC1CCOCC1: 0.4
- COc1ccc(F)cc1[C@H](Cn1c(=O)n(C(C)(C)C(=O)N2CC(O)C2)c(=O)c2c(C)c(-n3nccn3)sc21)OC1CCOCC1: 2
- COc1ccc(F)cc1[C@H](Cn1c(=O)n([C@@H](C)C(=O)NC2CCC2)c(=O)c2c(C)c(-n3nccn3)sc21)OCCO: 0.4

* * *

- Test system: Septoria tritici (St)
- Test Name: Growth inhibition assay of fungal pathogens, St
- Format: cell-based
- Cond: Zymoseptoria tritici, 48 h, Septoria tritici; growth inhibition at 48 hours vs 2% DMSO control; read-out: Concentration at 90% Inhibition St
Measure Name: IC90

• CCO[C@@H](Cn1c(=O)n(C(C)(C)C(=O)N2CCCC2)c(=O)c2c(C)c(-n3nccn3)sc21)c1cc(F)ccc1OC [Compound I-42] = 2 µg/mL
• COc1ccc(F)cc1CCn1c(=O)n(C(C)(C)C(=O)NC(C)C)c(=O)c2c(C)c(-n3nccn3)sc21 [Compound I-266] = > 50 µg/mL
• CCc1ccc(F)cc1[C@@H](Cn1c(=O)n(C(C)(C)C(=O)NC(C)C)c(=O)c2c(C)c(-n3nccn3)sc21)OC[C@@H](C)C#N [Compound I-247] = > 50 µg/mL
• COc1ccc(F)cc1[C@@H](Cn1c(=O)n(C(C)(C)C(=O)NC(C)C)c(=O)c2c(C)c(-n3nccn3)sc21)OC(C)=O [Compound I-259] = > 50 µg/mL
• CCc1ccc(F)cc1[C@@H](Cn1c(=O)n(C(C)(C)C(=O)NC(C)C)c(=O)c2c(C)c(-n3nccn3)sc21)OC[C@H](C)C#N [Compound I-245] = > 50 µg/mL
• COc1ccc(F)cc1[C@H](Cn1c(=O)n(C(C)(C)C(=O)N2CCCC2)c(=O)c2c(C)c(-n3nccn3)sc21)OC[C@@H](C)O [Compound I-46] = > 50 µg/mL

* * *

- System: Botrtyis cinerea (Bc)
- Test Name: Growth inhibition assay of fungal pathogens, Bc
- Type: cell-based
- Cond: 48 h, Botrtyis cinerea; growth inhibition vs 2% DMSO control at 48 hours; read-out: Concentration at 90% Inhibition Bc
Measure Name: IC90 (mg/L)

- COc1ccc(F)cc1[C@H](Cn1c(=O)n(C(C)(C)C(=O)N2CCCC2)c(=O)c2c(C)c(-n3nccn3)sc21)OC1CCC(=O)CC1 [Compound I-33]: 0.4
- COCCCO[C@@H](Cn1c(=O)n([C@H](C)C(=O)NC(C)C)c(=O)c2c(C)c(-n3nccn3)sc21)c1cc(F)ccc1OC [Compound I-87]: 0.08
- COc1ccc(F)cc1[C@H](Cn1c(=O)n(C(C)(C)C(=O)N2CCCC2)c(=O)c2c(C)c(-n3nccn3)sc21)OC[C@@H](C)O [Compound I-46]: 2
- COc1ccc(F)cc1[C@H](Cn1c(=O)n([C@@H](C)C(=O)NC2CCC2)c(=O)c2c(C)c(-n3nccn3)sc21)OCCO [Compound I-77]: 0.4
- COc1ccc(F)cc1[C@H](Cn1c(=O)n(C(C)(C)C(=O)N2CC(O)C2)c(=O)c2c(C)c(-n3nccn3)sc21)OC1CCOCC1 [Compound I-26]: 2

* * *

Quick list: IC50 per entry.
- Assayed Target: human (hACC2) (Homo sapiens)
- Sequence (O00763 whole entry): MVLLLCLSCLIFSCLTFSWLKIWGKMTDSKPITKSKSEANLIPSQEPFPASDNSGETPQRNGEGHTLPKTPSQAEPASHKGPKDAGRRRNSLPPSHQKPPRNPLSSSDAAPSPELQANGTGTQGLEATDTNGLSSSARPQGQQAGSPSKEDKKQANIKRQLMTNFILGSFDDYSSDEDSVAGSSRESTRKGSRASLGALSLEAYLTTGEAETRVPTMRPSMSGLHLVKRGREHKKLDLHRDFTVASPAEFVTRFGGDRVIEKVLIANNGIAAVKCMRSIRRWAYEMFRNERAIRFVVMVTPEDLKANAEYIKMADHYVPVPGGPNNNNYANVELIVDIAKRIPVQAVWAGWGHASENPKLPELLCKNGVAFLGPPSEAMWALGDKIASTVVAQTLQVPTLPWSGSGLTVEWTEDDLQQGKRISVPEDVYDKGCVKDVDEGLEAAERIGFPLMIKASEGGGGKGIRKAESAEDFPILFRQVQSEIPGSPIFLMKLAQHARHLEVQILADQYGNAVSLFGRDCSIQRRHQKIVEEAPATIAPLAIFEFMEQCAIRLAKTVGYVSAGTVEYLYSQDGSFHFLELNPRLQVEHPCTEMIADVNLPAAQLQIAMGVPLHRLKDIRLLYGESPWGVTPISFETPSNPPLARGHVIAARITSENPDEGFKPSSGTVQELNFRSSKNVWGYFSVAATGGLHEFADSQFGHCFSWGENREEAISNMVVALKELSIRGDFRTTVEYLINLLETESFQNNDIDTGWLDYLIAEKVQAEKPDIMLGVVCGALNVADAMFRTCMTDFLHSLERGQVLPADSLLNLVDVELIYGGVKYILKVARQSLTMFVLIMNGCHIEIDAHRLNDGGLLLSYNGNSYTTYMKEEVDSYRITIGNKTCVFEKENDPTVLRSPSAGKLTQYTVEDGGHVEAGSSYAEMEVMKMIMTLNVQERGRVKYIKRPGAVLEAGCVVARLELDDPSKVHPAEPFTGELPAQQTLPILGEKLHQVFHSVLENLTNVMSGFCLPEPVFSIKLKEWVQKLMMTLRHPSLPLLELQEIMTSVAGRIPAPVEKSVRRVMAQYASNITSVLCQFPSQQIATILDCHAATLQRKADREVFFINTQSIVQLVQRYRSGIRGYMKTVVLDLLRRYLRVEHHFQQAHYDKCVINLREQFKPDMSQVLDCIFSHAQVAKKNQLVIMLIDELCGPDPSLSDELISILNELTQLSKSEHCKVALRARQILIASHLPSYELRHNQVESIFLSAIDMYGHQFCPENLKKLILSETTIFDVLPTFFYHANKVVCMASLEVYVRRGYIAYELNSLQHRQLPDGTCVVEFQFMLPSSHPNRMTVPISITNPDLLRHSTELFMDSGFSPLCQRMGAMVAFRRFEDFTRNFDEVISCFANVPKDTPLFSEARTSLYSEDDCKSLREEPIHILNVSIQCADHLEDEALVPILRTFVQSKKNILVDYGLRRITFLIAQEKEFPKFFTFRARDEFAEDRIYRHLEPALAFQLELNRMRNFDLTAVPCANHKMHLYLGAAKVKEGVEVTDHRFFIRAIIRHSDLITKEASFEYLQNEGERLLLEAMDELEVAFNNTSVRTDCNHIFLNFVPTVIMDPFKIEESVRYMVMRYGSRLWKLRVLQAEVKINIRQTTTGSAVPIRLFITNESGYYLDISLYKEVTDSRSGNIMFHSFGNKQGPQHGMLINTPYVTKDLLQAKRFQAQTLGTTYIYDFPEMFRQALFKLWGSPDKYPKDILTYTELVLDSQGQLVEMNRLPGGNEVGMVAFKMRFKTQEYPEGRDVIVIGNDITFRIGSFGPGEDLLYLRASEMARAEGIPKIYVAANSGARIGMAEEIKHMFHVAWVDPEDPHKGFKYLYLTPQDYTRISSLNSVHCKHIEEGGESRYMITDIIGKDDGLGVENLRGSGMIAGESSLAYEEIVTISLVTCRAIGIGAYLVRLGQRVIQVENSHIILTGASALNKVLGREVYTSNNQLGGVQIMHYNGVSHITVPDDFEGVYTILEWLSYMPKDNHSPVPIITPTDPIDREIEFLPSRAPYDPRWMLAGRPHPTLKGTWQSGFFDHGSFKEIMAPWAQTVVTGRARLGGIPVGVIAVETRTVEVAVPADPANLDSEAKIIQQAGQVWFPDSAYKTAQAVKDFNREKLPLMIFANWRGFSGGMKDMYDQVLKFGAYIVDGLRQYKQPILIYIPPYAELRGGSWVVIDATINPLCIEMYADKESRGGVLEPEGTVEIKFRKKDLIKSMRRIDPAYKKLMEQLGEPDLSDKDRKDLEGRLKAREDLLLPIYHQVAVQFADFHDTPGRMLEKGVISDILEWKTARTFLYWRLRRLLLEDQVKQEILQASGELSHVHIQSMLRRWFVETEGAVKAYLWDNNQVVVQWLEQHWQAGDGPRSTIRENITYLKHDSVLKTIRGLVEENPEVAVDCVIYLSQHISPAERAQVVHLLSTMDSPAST
- Test Name: In vitro ACC inhibition assay (ADP-Glo), hACC2
- Assay type: biochemical
- Cond: Table 2a, 5 nM ACC2, 20 μM ATP, 20 μM acetyl-CoA
Measure Name: IC50

- COc1ccc(F)cc1[C@H](Cn1c(=O)n(C(C)(C)C(=O)O)c(=O)c2c(C)c(-n3nccn3)sc21)OC1CCC(=O)CC1: 1 to 5 nM
- COc1ccc(F)cc1[C@H](Cn1c(=O)n(C(C)(C)C(=O)NC2CCCCC2)c(=O)c2c(C)c(-n3nccn3)sc21)OCC(C)=O: 1 to 5 nM
- COc1ccc(F)cc1[C@H](Cn1c(=O)n(C(C)(C)C(N)=O)c(=O)c2c(C)c(-n3nccn3)sc21)OC[C@@H](C)C#N: 1 to 5 nM

* * *

- Assayed Target: human (hACC2) (Homo sapiens)
- Test Name: In vitro ACC inhibition assay (ADP-Glo), hACC2
- Type: biochemical
- Cond: Table 2b, additional results, 5 nM ACC2, 20 μM ATP, 20 μM acetyl-CoA
Measure Name: IC50

* COCCCO[C@@H](Cn1c(=O)n([C@@H](C)C(=O)NC(C)C)c(=O)c2c(C)c(-n3nccn3)sc21)c1cc(F)ccc1OC | 10 to 40 nM
* CCNC(=O)C(C)(C)n1c(=O)c2c(C)c(-n3nccn3)sc2n(C[C@H](OC2CCOCC2)c2cc(F)ccc2OC)c1=O | 5 to 10 nM
* COc1ccc(F)cc1[C@H](Cn1c(=O)n(C(C)(C)C(=O)NC(C)C)c(=O)c2c(C)c(-n3nccn3)sc21)OCC(C)=O | 1 to 5 nM
* COc1ccc(F)cc1[C@H](Cn1c(=O)n(C(C)(C)C(=O)N2CCOCC2)c(=O)c2c(C)c(-n3nccn3)sc21)OC(C)C | 10 to 40 nM
* COc1ccc(F)cc1[C@H](Cn1c(=O)n(C(C)(C)C(=O)NC(C)C)c(=O)c2c(C)c(-n3nccn3)sc21)OC(C)(C)C(C)=O | 10 to 40 nM
* COCCO[C@@H](Cn1c(=O)n([C@H](C)C(=O)N2CCCC2)c(=O)c2c(C)c(-n3nccn3)sc21)c1cc(F)ccc1OC | 10 to 40 nM
* COc1ccc(F)cc1[C@H](Cn1c(=O)n(C(C)(C)C(=O)NC(C)C)c(=O)c2c(C)c(-n3nccn3)sc21)OCCCO | 1 to 5 nM
* CCc1ccccc1[C@H](Cn1c(=O)n(C(C)(C)C(=O)NC(C)C)c(=O)c2c(C)c(-n3nccn3)sc21)O[C@H]1CC[C@@H](C#N)CC1 | 1 to 5 nM
* Cc1c(-n2nccn2)sc2c1c(=O)n(C(C)(C)C(=O)NC(C)C)c(=O)n2C[C@H](OC(C)C)c1cc(F)ccc1OCC#N | 10 to 40 nM
* COCCO[C@@H](Cn1c(=O)n([C@@H](C)C(=O)NC(C)C)c(=O)c2c(C)c(-n3nccn3)sc21)c1cc(F)ccc1OC [Compound I-83] | > 40 nM
* COc1ccc(F)cc1[C@H](Cn1c(=O)n([C@H](C)C(=O)N(C)C(C)C)c(=O)c2c(C)c(-n3nccn3)sc21)OCCC#N | 1 to 5 nM
* COCCO[C@@H](Cn1c(=O)n(CC(=O)N2CCCC2)c(=O)c2c(C)c(-n3nccn3)sc21)c1cc(F)ccc1OC | 10 to 40 nM
* COc1ccc(F)cc1[C@H](Cn1c(=O)n(C(C)(C)C(=O)O)c(=O)c2c(C)c(-n3nccn3)sc21)OCC(C)C | 1 to 5 nM

* * *

- Assayed Target: fungal (fACC2)
- Cond: read-out: fACC2 (in vitro ACC2 Inhibition Assay, IC50); Table 2b, additional results; ADP-Glo, 5 nM ACC2, 20 μM ATP, 20 μM acetyl-CoA
pIC50: −log10 of the molar value.
Measure Name: pIC50

- COc1ccc(F)cc1[C@H](Cn1c(=O)n(C(C)(C)C(N)=O)c(=O)c2c(C)c(-n3nccn3)sc21)OCCC(=O)C(F)(F)F: 8.30 to 9.00
- Cc1c(-n2nccn2)sc2c1c(=O)n(C(C)(C)C(=O)NC(C)C)c(=O)n2C[C@H](OCCO)c1cc(F)ccc1OCc1ccccc1: 8.30 to 9.00
- COc1ccc(F)cc1[C@H](Cn1c(=O)n(C(C)(C)C(=O)NC(C)C)c(=O)c2c(C)c(-n3nccn3)sc21)O[C@H]1CC[C@H](C#N)CC1: 8.30 to 9.00
